- System: human iPSC-derived cardiomyocytes (iCells)
Observable: alterations in beat patterns / arrhythmic beats

1. COc1ccccc1OCC(O)CN1CCN(CC(=O)Nc2c(C)cccc2C)CC1 (stereo not drawn) ... not torsadogenic
2. COc1c(N2C[C@@H]3CCCN[C@@H]3C2)c(F)cc2c(=O)c(C(=O)O)cn(C3CC3)c12 ... not torsadogenic

###

- Test system: human iPSC-derived cardiomyocytes (iCells)
- Details: Table I; Cmax/IB20, cut-off >100 as level of concern
Observable: PPS
Answers are plain numbers.

1) CCN1C[C@]2(COC)[C@H](O)C[C@H](OC)[C@@]34[C@@H]5C[C@@]6(O)[C@H](OC(=O)c7ccccc7)[C@@H]5[C@@](OC(C)=O)([C@@H]([C@H](OC)[C@H]23)[C@@H]14)[C@@H](O)[C@@H]6OC ... 2567
2) CN(CCOc1ccc(NS(C)(=O)=O)cc1)CCc1ccc(NS(C)(=O)=O)cc1 [Dofetilide] ... 2000
3) C[C@@H]1O[C@@H](O[C@H]2C[C@@H](O)[C@]3(CO)[C@H]4[C@H](O)C[C@]5(C)[C@@H](C6=CC(=O)OC6)CC[C@]5(O)[C@@H]4CC[C@]3(O)C2)[C@H](O)[C@H](O)[C@H]1O ... 5667

With those in mind, consider the next compound.
-- ask Which PPS reading was recorded for the compound C=C[C@H]1C[N@@]2CC[C@H]1C[C@@H]2[C@@H](O)c1ccnc2ccc(OC)cc12 ?
-- reply 2158

###

Give measured PPS for each item. Keep answers brief.
- Tested on: human iPSC-derived cardiomyocytes (iCells)
- Details: human
- Method: […] xCELLigence® cardio e-plates and MEA Re-plating. iCells cultured in 6-well plates were harvested by twice washing in dPBS (GIBCO) then lifted with 0.5% Trypsin-EDTA (GIBCO), incubated at 37° C., 7% CO2. […] The cells were monitored every 1 h by a 20 s sweep duration by the xCELLigence® RTCA cardio system at its maximum sampling rate (77 Hz) prior to initiating experimentation. […] Data Analysis. […] To calculate the “Predicted Proarrhythmic Score” (PPS), we first determined a “Irregular Beat Ratio” (IBR). […]
One number for each entry.

1. C[C@@H]1O[C@@H](O[C@H]2C[C@@H](O)[C@]3(CO)[C@H]4[C@H](O)C[C@]5(C)[C@@H](C6=CC(=O)OC6)CC[C@]5(O)[C@@H]4CC[C@]3(O)C2)[C@H](O)[C@H](O)[C@H]1O ... 0.2
2. C=C[C@H]1C[N@@]2CC[C@H]1C[C@@H]2[C@@H](O)c1ccnc2ccc(OC)cc12 ... 0.5
3. CCN1C[C@]2(COC)[C@H](O)C[C@H](OC)[C@@]34[C@@H]5C[C@@]6(O)[C@H](OC(=O)c7ccccc7)[C@@H]5[C@@](OC(C)=O)([C@@H]([C@H](OC)[C@H]23)[C@@H]14)[C@@H](O)[C@@H]6OC ... 0.4

With those in mind, consider the next molecule.
-- ask Which PPS reading was recorded for the molecule CN(CCOc1ccc(NS(C)(=O)=O)cc1)CCc1ccc(NS(C)(=O)=O)cc1 [Dofetilide] ?
-- reply 0.5
